Species on record: Rattus norvegicus
experimental.protocol: Open TG-GATES - Regimen: Single
Format: toxicity, organism-based, Sprague-Dawley
Set-up: regimen Single, gender Male, age 6 weeks
applied.conditions: in vivo, po, 100 mg/kg, 3 h, tissue Plasma, route gavage, dose level Low
property: RALB (g/dL)
Answers are plain numbers, in g/dL.

Cc1nnc2n1-c1ccc(Cl)cc1C(c1ccccc1Cl)=NC2 [TRIAZOLAM]: 2.4
COC(=O)C1=C(C)NC(C)=C(C(=O)OC)C1c1ccccc1[N+](=O)[O-] [NIFEDIPINE]: 2.5
CNC(=C[N+](=O)[O-])NCCSCc1ccc(CN(C)C)o1 [RANITIDINE]: 3.4

Please give RALB for each item listed below.
1. CN/C(=N/CCSCc1nc[nH]c1C)NC#N [CIMETIDINE]
2. O=C(OC[C@H]1O[C@@H](OC(=O)c2cc(O)c(O)c(OC(=O)c3cc(O)c(O)c(O)c3)c2)[C@H](OC(=O)c2cc(O)c(O)c(OC(=O)c3cc(O)c(O)c(O)c3)c2)[C@@H](OC(=O)c2cc(O)c(O)c(OC(=O)c3cc(O)c(O)c(O)c3)c2)[C@@H]1OC(=O)c1cc(O)c(O)c(OC(=O)c2cc(O)c(O)c(O)c2)c1)c1cc(O)c(O)c(OC(=O)c2cc(O)c(O)c(O)c2)c1 [TANNIC ACID]

[3.4, 3.5]

---

Organism: Rattus norvegicus
experimental.protocol: Open TG-GATES - Regimen: Single
Assay type: toxicity, organism-based, Sprague-Dawley
Set-up: regimen Single, gender Male, age 6 weeks
applied.conditions: in vivo, po, 300 mg/kg, 9 h, tissue Blood, route gavage, dose level Middle
property: MCH (pg)
Give bare numbers, in pg.

// worked examples, MCH included
Cc1nnc2n1-c1ccc(Cl)cc1C(c1ccccc1Cl)=NC2: 21.4
COC(=O)C1=C(C)NC(C)=C(C(=O)OC)C1c1ccccc1[N+](=O)[O-]: 21

Please give MCH for each item listed below.
1. CN/C(=N/CCSCc1nc[nH]c1C)NC#N
2. O=C(OC[C@H]1O[C@@H](OC(=O)c2cc(O)c(O)c(OC(=O)c3cc(O)c(O)c(O)c3)c2)[C@H](OC(=O)c2cc(O)c(O)c(OC(=O)c3cc(O)c(O)c(O)c3)c2)[C@@H](OC(=O)c2cc(O)c(O)c(OC(=O)c3cc(O)c(O)c(O)c3)c2)[C@@H]1OC(=O)c1cc(O)c(O)c(OC(=O)c2cc(O)c(O)c(O)c2)c1)c1cc(O)c(O)c(OC(=O)c2cc(O)c(O)c(O)c2)c1
3. CNC(=C[N+](=O)[O-])NCCSCc1ccc(CN(C)C)o1

21.6
21.9
21.6

---

Species on record: Rattus norvegicus
experimental.protocol: Open TG-GATES - Regimen: Daily Repeat
Type: toxicity, organism-based, Sprague-Dawley
Parameters: regimen Daily Repeat, gender Male, age 6 weeks
applied.conditions: in vivo, po, 100 mg/kg, […], tissue Blood, route gavage, dose level Low, time 28 day
property: Hb (g/dL)
One number for each entry, in g/dL.

// worked examples, Hb included
Cc1nnc2n1-c1ccc(Cl)cc1C(c1ccccc1Cl)=NC2 [TRIAZOLAM]: 15.2
COC(=O)C1=C(C)NC(C)=C(C(=O)OC)C1c1ccccc1[N+](=O)[O-] [NIFEDIPINE]: 13.6
CNC(=C[N+](=O)[O-])NCCSCc1ccc(CN(C)C)o1 [RANITIDINE]: 15.7
CCOc1ccc(NC(C)=O)cc1 [PHENACETIN]: 15
O=C(OC[C@H]1O[C@@H](OC(=O)c2cc(O)c(O)c(OC(=O)c3cc(O)c(O)c(O)c3)c2)[C@H](OC(=O)c2cc(O)c(O)c(OC(=O)c3cc(O)c(O)c(O)c3)c2)[C@@H](OC(=O)c2cc(O)c(O)c(OC(=O)c3cc(O)c(O)c(O)c3)c2)[C@@H]1OC(=O)c1cc(O)c(O)c(OC(=O)c2cc(O)c(O)c(O)c2)c1)c1cc(O)c(O)c(OC(=O)c2cc(O)c(O)c(O)c2)c1 [TANNIC ACID]: 15.1

Could you now consider this next compound?
Which Hb is listed for CN/C(=N/CCSCc1nc[nH]c1C)NC#N [CIMETIDINE] ?
14.6

Measured values drawn from ChEMBL document CHEMBL3885861 for this set.
